# SUBJECT_OF_TEST: Amine oxidase [flavin-containing] A (Homo sapiens)
# Sequence (P21397 whole entry): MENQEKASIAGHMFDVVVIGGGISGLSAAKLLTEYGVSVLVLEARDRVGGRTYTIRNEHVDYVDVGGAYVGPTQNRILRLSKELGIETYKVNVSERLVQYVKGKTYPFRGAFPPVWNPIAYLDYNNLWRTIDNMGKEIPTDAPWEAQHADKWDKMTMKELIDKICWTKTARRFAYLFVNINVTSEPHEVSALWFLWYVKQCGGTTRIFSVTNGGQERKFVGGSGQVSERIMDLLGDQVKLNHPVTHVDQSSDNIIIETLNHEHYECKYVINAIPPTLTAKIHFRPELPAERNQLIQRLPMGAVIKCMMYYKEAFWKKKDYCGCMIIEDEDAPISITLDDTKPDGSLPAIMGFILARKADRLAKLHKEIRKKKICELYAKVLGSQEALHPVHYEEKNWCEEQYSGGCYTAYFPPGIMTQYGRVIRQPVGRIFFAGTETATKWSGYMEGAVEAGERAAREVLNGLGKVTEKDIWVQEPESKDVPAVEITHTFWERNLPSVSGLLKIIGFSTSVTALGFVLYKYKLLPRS
# ASSAY_OVERVIEW: DRUGMATRIX: Monoamine Oxidase MAO-A enzyme inhibition (substrate: Kynuramine)
# Parameters: species or system BTI-TN-5B1-4
# CONDITION_LABEL: bti-tn-5b1-4; Not Active = under 50% inhibition at 10 µM
RESULT_TYPE: IC50

C[C@@H]1C[C@@H]([C@H](O)CC2CC(=O)NC(=O)C2)C(=O)[C@@H](C)C1 [CYCLOHEXIMIDE]
Not Active
CC(C)(C)c1ccc(C(O)CCCN2CCC(C(O)(c3ccccc3)c3ccccc3)CC2)cc1 (stereo not drawn)
Not Active
Cc1ccc(S(=O)(=O)NC(=O)NN2CC3CCCC3C2)cc1 (stereo not drawn) [GLICLAZIDE]
Not Active

###

# SUBJECT_OF_TEST: Alpha-1D adrenergic receptor (Homo sapiens)
# Sequence (P25100 whole entry): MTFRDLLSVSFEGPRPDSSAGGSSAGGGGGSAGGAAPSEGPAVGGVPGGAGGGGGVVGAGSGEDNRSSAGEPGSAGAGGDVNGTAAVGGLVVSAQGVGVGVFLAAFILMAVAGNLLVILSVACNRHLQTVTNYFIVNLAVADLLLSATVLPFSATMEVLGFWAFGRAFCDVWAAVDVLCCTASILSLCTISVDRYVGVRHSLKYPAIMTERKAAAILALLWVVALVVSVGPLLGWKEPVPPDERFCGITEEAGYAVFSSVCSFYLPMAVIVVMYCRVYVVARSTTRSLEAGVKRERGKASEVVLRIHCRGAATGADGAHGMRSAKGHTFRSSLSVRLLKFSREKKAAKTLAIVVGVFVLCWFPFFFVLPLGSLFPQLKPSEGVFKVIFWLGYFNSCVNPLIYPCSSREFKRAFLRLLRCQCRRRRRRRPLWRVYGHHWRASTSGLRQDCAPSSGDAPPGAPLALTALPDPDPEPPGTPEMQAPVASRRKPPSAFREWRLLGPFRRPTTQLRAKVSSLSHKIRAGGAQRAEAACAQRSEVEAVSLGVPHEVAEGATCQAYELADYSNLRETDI
# Type: cell membranes, HEK293, Membrane
# CONDITION_LABEL: read-out: Ki
RESULT_TYPE: pKi
Value format note: pKi is -log10 of concentration (mol/L); just state the number.

Solved entries (count: 3):
CN1CCC(=C2c3ccccc3C=Cc3ccccc32)CC1
7.28
CC/C(=C(/CC)c1ccc(O)cc1)c1ccc(O)cc1
5.27
O=C(c1ccc(OCCN2CCCCC2)cc1)c1c(-c2ccc(O)cc2)sc2cc(O)ccc12
6.32

INPUT: Form field: pKi recorded for Clc1ccc2c(c1)C(N1CCNCC1)=Nc1ccccc1O2 with Alpha-1D adrenergic receptor (Homo sapiens) (enter value)
OUTPUT: 6.82

INPUT: Try this compound too: CN(C)c1ccc(C(=C2C=CC(=[N+](C)C)C=C2)c2ccc(N(C)C)cc2)cc1.[Cl-]
OUTPUT: 6.01

###

# ASSAY_OVERVIEW: DRUGMATRIX: Potassium Channel [KATP] radioligand binding (ligand: [3H] Glyburide)
# Assay type: cell membranes, Membrane
# CONDITION_LABEL: hit-t15; Not Active = under 50% inhibition at 10 µM; read-out: Ki
RESULT_TYPE: Ki (nM)
All answers are understood in nM, so give the number only.

INPUT: Query (molecule): CC(C)[C@H]1CC[C@H](C(=O)N[C@H](Cc2ccccc2)C(=O)O)CC1 [NATEGLINIDE] ; field requested: Ki
OUTPUT: 189

###

# SUBJECT_OF_TEST: UniProt:P04035
# Sequence (P04035 whole entry): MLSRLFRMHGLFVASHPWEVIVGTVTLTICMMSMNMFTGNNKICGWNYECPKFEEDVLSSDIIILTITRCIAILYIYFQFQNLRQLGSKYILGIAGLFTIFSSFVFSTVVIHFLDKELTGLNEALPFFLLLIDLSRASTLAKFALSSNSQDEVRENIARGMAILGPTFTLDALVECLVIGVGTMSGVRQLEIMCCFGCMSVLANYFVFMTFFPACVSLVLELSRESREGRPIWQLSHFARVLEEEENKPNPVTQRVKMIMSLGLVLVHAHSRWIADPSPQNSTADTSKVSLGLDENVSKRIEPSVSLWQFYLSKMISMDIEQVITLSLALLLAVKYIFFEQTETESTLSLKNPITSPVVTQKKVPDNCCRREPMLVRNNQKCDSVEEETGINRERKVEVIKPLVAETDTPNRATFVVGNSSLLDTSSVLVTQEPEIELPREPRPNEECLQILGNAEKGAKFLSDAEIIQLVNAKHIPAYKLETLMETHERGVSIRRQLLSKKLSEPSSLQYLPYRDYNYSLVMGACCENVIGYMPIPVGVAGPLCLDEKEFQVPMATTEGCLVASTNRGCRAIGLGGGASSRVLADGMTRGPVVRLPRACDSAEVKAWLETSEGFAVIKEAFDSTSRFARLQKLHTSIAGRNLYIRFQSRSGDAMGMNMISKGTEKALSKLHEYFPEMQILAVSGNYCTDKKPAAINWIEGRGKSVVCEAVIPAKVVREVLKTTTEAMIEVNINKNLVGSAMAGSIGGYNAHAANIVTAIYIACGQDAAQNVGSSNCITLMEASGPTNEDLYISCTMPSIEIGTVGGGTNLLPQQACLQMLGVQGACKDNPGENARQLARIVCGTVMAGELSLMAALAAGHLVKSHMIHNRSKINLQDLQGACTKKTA
# Set-up: species or system Escherichia coli
RESULT_TYPE: IC50

CC(=O)OCC(=O)[C@@]1(O)CC[C@H]2[C@@H]3CCC4=CC(=O)CC[C@]4(C)[C@H]3C(=O)C[C@@]21C [CORTISONE ACETATE]
Not Active
CC(=O)Nc1c(I)c(NC(C)=O)c(I)c(C(=O)O)c1I
Not Active
C[C@@]12C(=O)OC(=O)[C@]1(C)[C@H]1CC[C@@H]2O1
Not Active
C=CCN1CC[C@]23c4c5ccc(O)c4O[C@H]2C(=O)CC[C@@]3(O)[C@H]1C5
Not Active
O=C(N[C@H](CO)[C@H](O)c1ccc([N+](=O)[O-])cc1)C(Cl)Cl
Not Active
Cc1cc(C)nc(NS(=O)(=O)c2ccc(N)cc2)n1
Not Active

INPUT: What value of IC50 has been reported for the following compound? C[C@H]1C[C@H]2[C@@H]3CCC4=CC(=O)C=C[C@]4(C)[C@@]3(Cl)[C@@H](O)C[C@]2(C)[C@@]1(O)C(=O)CO
OUTPUT: Not Active

INPUT: Do the same for Cc1ncc([N+](=O)[O-])n1CCO please
OUTPUT: Not Active

INPUT: // query: CC1(C)O[C@@H]2C[C@H]3[C@@H]4C[C@H](F)C5=CC(=O)CC[C@]5(C)[C@H]4[C@@H](O)C[C@]3(C)[C@]2(C(=O)CO)O1 [FLURANDRENOLIDE]
OUTPUT: Not Active
